# Test system: SF-268 CNS
# experiment-description: NCI tumour cell line growth inhibition, 48 h
outcome-measure: TGI

Example cases with answers are listed next.
- O=c1c2cc(-c3ccccc3)sc2ncn1Cc1ccc(Cl)c(Cl)c1: 80.3 µM
- COC(=O)CCc1c(Cc2ccc[nH]2)[nH]c(C(=O)OCc2ccccc2)c1C: 53.7 µM
- O=C1C=C2CCC[C@H]3OC(=O)C[C@@]23CC1: > 100 µM
- CNc1ccc2ncccc2c1[N+](=O)[O-]: > 100 µM
- COCC1OC(S(=O)(=O)c2ccccc2)C(O)C(OC)C1OC (stereo unspecified): > 100 µM

stdin: Can you look up the measured TGI of Cc1ccc(Sc2ccccc2[N+](=O)[O-])cc1 for me?
stdout: > 100 µM

----------
# Tested on: CCRF-CEM leukemia
# experiment-description: NCI tumour cell line growth inhibition, 48 h
outcome-measure: TGI

- C[Si](C)(c1ccc(C(=O)O)cc1)c1ccc(C(=O)O)cc1: > 100 µM
- N#C/C(=C\c1cccc(O)c1O)C(N)=O: 45.3 µM
- CC(C)(O)C1CC[C@]2(C)[C@H]3CC[C@@H]4[C@@]5(C)CCCC(C)(C)[C@@H]5CC[C@@]4(C)[C@]3(C)CC[C@@H]12 (some centres undefined): > 100 µM
- C1=C/COCc2cc(ccc2OCCN2CCCC2)Nc2nccc(n2)-c2ccc(o2)COC/1: 7.2 µM
- O=c1cc(-c2ccc(O)cc2)oc2cc(O[C@@H]3O[C@H](CO)[C@@H](O)[C@H](O)[C@H]3O)cc(O)c12: > 100 µM

stdin: Can you look up the measured TGI of CCOC(=O)C(C)Sc1nnc(COc2ccccc2OC)n1-c1ccccc1 (centres undefined) for me?
stdout: > 100 µM

----------
# Tested on: NCI-H460 lung
Use one of these outcomes when replying: active, inactive

stdin: Identify the outcome logged in this assay for the molecule shown: NS(=O)(=O)c1ccc(N=Nc2c(O)[nH]c3ccc(C(=O)NCc4ccncc4)cc23)cc1
stdout: inactive

stdin: Query NS(=O)(=O)c1ccc(N2N=C3c4ccccc4CC3C2c2cccs2)cc1 (stereo not given) next
stdout: inactive

stdin: Query CC[C@@]1(OC(=O)CN)C(=O)OCc2c1cc1n(c2=O)Cc2c-1nc1cc3c(cc1c2CCl)OCO3 next
stdout: active

stdin: Query O=c1c2cc(-c3ccccc3)sc2ncn1Cc1ccc(Cl)c(Cl)c1 next
stdout: inactive

stdin: Query C#CCNC(=S)N/N=C(\C)c1ccccn1 next
stdout: inactive

----------
# System: OVCAR-4 ovarian
# experiment-description: NCI tumour cell line growth inhibition, 48 h
Where a SMILES comes first, the peptide text is derived from it. [ ]: non-standard residue; d: D form. The star is where a group is joined. Bn2Val = CC(C)[C@@H](C(=O)*)N(Cc1ccccc1)Cc1ccccc1; NMeV = CN[C@H](C(=O)O)C(C)C; X29 = COc1ccc(CN*)c(OC)c1; dNMeA = CN[C@H](C)C(=O)O
outcome-measure: TGI

stdin: Hi! What's the reported TGI for CC1(C)C2CCC3(OCCO3)C1C(O)C2 (centres undefined) on OVCAR-4 ovarian?
stdout: > 100 µM

stdin: Query CCOC(=O)C(C)Sc1nnc(COc2ccccc2OC)n1-c1ccccc1 (centres undefined) next
stdout: > 100 µM

stdin: Query COc1ccc(CNC(=O)[C@@H]2CCCN2C(=O)[C@@H](C)N(C)C(=O)[C@H](C(C)C)N(C)C(=O)[C@@H](NC(=O)[C@H](C(C)C)N(Cc2ccccc2)Cc2ccccc2)C(C)C)c(OC)c1 (Bn2Val-V[NMeV][dNMeA]P-X29) next
stdout: 14.4 µM

stdin: Query C=C1C(=O)O[C@H]2[C@H]1CC/C(COC(=O)NCc1ccc(OC)cc1)=C\CC[C@@]1(C)O[C@@H]21 next
stdout: 13.5 µM

stdin: Query Cc1ccc(-c2cc(O)c3nc4ccccc4n3c2)cc1 next
stdout: > 100 µM

stdin: Query C=C/C(C)=C/C[C@]1(C)[C@H](C)[C@@H](OC(=O)CCC)[C@H](O)[C@@]23C(=C[C@H](OC)C[C@@H]12)[C@@H](OC(=O)CCC)O[C@H]3OC(C)=O next
stdout: 1.34 µM

stdin: Query Cc1ccc(-n2cc(-c3ccc(Cl)cc3)c3c(NN)ncnc32)cc1 next
stdout: 19.2 µM

stdin: Query Cc1ccc(Oc2ccccc2N)cc1 next
stdout: > 100 µM

Cited source for all entries: PubChem BioAssay (NCI)
